Values compiled from ChEMBL document CHEMBL1137611.

Listed below: Kb values for each entry.
EXPERIMENTAL_TARGET: Growth hormone secretagogue receptor type 1 (Homo sapiens, UniProt Q92847)
Sequence (Q92847 whole entry): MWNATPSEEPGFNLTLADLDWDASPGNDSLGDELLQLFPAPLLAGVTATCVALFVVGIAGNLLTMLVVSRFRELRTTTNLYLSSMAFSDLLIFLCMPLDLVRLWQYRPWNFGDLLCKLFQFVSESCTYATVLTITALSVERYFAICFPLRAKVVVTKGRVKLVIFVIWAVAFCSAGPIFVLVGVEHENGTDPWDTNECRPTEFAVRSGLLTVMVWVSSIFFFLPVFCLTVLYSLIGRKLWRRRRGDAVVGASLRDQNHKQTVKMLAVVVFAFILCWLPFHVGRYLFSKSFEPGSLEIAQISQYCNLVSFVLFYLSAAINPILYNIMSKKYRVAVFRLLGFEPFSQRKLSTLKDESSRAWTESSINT
MEASUREMENT_NOTES: Antagonist activity at human GHS1a receptor expressed in CHO cells assessed as accumulation of intracellular calcium level
Type: functional, cell-based
PARAMETER_MEASURED: Kb (nM)

{"LINE_NOTATION": "COc1ccc(Cn2c(CCc3c[nH]c4ccccc34)nnc2[C@@H](Cc2c[nH]c3ccccc23)NC(=O)[C@H]2CCCN2)cc1", "PARAMETER_MEASURED": "Kb", "TEST_RESULT": 7}
{"LINE_NOTATION": "COc1ccc(Cn2c(CCc3c[nH]c4ccccc34)nnc2[C@@H](Cc2c[nH]c3ccccc23)NC(=O)[C@@H]2CCCN2)cc1", "PARAMETER_MEASURED": "Kb", "TEST_RESULT": 6}
{"LINE_NOTATION": "COc1ccc(Cn2c(CCc3c[nH]c4ccccc34)nnc2[C@@H](Cc2c[nH]c3ccccc23)NC(=O)[C@@H]2CCCN2)c(OC)c1", "PARAMETER_MEASURED": "Kb", "TEST_RESULT": 11}
{"LINE_NOTATION": "COc1ccc(Cn2c(CCc3c[nH]c4ccccc34)nnc2[C@@H](Cc2c[nH]c3ccccc23)NC(=O)[C@H]2CCCCN2)cc1", "PARAMETER_MEASURED": "Kb", "TEST_RESULT": 8}
{"LINE_NOTATION": "COc1ccc(Cn2c(CCc3ccccc3)nnc2[C@@H](Cc2c[nH]c3ccccc23)NC(=O)[C@H]2CCCNC2)cc1", "PARAMETER_MEASURED": "Kb", "TEST_RESULT": 10}
{"LINE_NOTATION": "COc1ccc(Cn2c(CCc3c[nH]c4ccccc34)nnc2[C@@H](Cc2c[nH]c3ccccc23)NC(=O)C(C)(C)N)cc1", "PARAMETER_MEASURED": "Kb", "TEST_RESULT": 4}
{"LINE_NOTATION": "COc1ccc(Cn2c(CCc3c[nH]c4ccccc34)nnc2[C@@H](Cc2c[nH]c3ccccc23)NC(=O)CN)c(OC)c1", "PARAMETER_MEASURED": "Kb", "TEST_RESULT": 27}

###

EXPERIMENTAL_TARGET: Growth hormone secretagogue receptor type 1 (Homo sapiens)
MEASUREMENT_NOTES: Activity at human GHS1a receptor expressed in CHO cells assessed as accumulation of intracellular calcium level at 10 uM relative to ghrelin
Type: functional, cell-based
Recorded Activity, one value per entry.

{"LINE_NOTATION": "COc1ccc(Cn2c(CCc3ccccc3)nnc2[C@@H](Cc2c[nH]c3ccccc23)NC(=O)[C@H]2CCCNC2)cc1", "Activity, %": 20}
{"LINE_NOTATION": "COc1ccc(Cn2c(CCc3c[nH]c4ccccc34)nnc2[C@@H](Cc2c[nH]c3ccccc23)NC(=O)CN)c(OC)c1", "Activity, %": 0}
{"LINE_NOTATION": "CCc1ccc(Cn2c(CCc3ccccc3)nnc2[C@@H](Cc2c[nH]c3ccccc23)NC(=O)CN)cc1", "Activity, %": 0}
{"LINE_NOTATION": "O=C(N[C@H](Cc1c[nH]c2ccccc12)c1nnc(CCc2c[nH]c3ccccc23)n1Cc1ccccc1)[C@H]1CCCNC1", "Activity, %": 50}
